Target: human proteinase 3 (Homo sapiens)
Construct: purchased Elastin Products Company, USA
Sequence (P24158 28-248): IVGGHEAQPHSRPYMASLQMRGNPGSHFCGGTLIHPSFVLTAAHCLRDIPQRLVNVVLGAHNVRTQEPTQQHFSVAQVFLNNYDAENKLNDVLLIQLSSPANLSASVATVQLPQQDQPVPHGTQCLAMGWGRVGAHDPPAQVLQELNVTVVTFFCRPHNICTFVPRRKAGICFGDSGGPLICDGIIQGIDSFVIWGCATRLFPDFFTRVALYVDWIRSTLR
Test: Inhibition of human proteinase 3 (Boc-Ala-Ala-Nva-SBzl)
Format: biochemical
Settings: 10 nM enzyme, 1 mM substrate, 37° C., pH7.4; read-out: Human proteinase 3 (hPr3) IC50
Non-standard residues stand in square brackets, D forms with d. Residues, ends and D or L forms follow the SMILES beside them. hArg = N=C(N)NCCCC[C@H](N)C(=O)O
readout_type: pIC50
In textbook form, pIC50 equals minus log to base ten of the concentration in mol/L.

The molecule listed as CC[C@H](C)[C@@H]1NC(=O)[C@H](CO)NC(=O)[C@H](C)NC(=O)[C@H]([C@@H](C)O)NC(=O)[C@H](CCC(=O)O)NC(=O)[C@H](CCCCNC(=N)N)NC(=O)[C@@H]2CCCN2C(=O)[C@H]2CCCN2C(=O)[C@H]([C@@H](C)O)NC(=O)[C@H](CCCCN)NC(=O)[C@H](CCC(N)=O)NC(=O)[C@@H]2CCCN2C(=O)[C@@H]2CCCN2C1=O [Example 9] (cyclo([hArg]ETASIPPQKT[dP]P)) has a reported pIC50 of 4.15

----------
Molecular target: porcine pancreatic elastase (Sus scrofa)
Construct: purchased Sigma, USA
Sequence (P00772 27-266): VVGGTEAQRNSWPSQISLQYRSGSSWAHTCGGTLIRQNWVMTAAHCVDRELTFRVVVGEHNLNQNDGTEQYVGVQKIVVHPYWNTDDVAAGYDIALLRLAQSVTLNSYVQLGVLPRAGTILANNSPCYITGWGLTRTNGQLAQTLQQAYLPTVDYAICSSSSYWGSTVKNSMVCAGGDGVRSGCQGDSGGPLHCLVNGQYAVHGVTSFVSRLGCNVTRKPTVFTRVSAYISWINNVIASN
Test: Inhibition of porcine pancreatic elastase (MeOSuc-AAA-pNA hydrolysis)
Type: biochemical
Conditions: ratio of PPE IC50 to hNE IC50
Non-standard residues stand in square brackets, D forms with d. Residues, ends and D or L forms follow the SMILES beside them. *: point of attachment. Gly(octyl) = CCCCCCCC[C@H](N)C(=O)O; hTyr = N[C@@H](CCc1ccc(O)cc1)C(=O)O; NHPhenethyl = c1ccc(CCN*)cc1
readout_type: hNE/PPE selectivity
When you answer, write just the number.

compound="CC[C@H](C)[C@@H]1NC(=O)[C@H](CO)NC(=O)[C@H](C)NC(=O)[C@H]([C@@H](C)O)NC(=O)[C@H](CCC(=O)O)NC(=O)[C@H](CCC(=O)NCCc2ccccc2)NC(=O)[C@@H]2CCCN2C(=O)[C@H]2CCCN2C(=O)[C@H](Cc2ccc(O)cc2)NC(=O)[C@H](CCCCN)NC(=O)[C@H](CCC(N)=O)NC(=O)[C@@H]2CCCN2C(=O)[C@@H]2CCCN2C1=O [Example 15] (cyclo(E(NHPhenethyl)ETASIPPQKY[dP]P))" recorded_result=87
compound="CCCCCCCC[C@@H]1NC(=O)[C@@H]2CCCN2C(=O)[C@H]2CCCN2C(=O)[C@H](CC(N)=O)NC(=O)[C@H](CCCCN)NC(=O)[C@H](CCC(N)=O)NC(=O)[C@@H]2CCCN2C(=O)[C@@H]2CCCN2C(=O)[C@H]([C@@H](C)CC)NC(=O)[C@H](CO)NC(=O)[C@H](C)NC(=O)[C@H]([C@@H](C)O)NC(=O)[C@H](CCC(=O)O)NC1=O [Example 1] (cyclo([Gly(octyl)]ETASIPPQKN[dP]P))" recorded_result=292

Reported porcine pancreatic elastase (Sus scrofa) hNE/PPE selectivity for item CC[C@H](C)[C@@H]1NC(=O)[C@H](CO)NC(=O)[C@H](C)NC(=O)[C@H]([C@@H](C)O)NC(=O)[C@H](CCC(=O)O)NC(=O)[C@H](CCCNC(=N)N)NC(=O)[C@@H]2CCCN2C(=O)[C@H]2CCCN2C(=O)[C@H](CO)NC(=O)[C@H](CCCCN)NC(=O)[C@H](Cc2ccc(O)cc2)NC(=O)[C@@H]2CCCN2C(=O)[C@@H]2CCCN2C1=O [Example 8] (cyclo(RETASIPPYKS[dP]P)) was 2756

Reported porcine pancreatic elastase (Sus scrofa) hNE/PPE selectivity for item CC[C@H](C)[C@@H]1NC(=O)[C@H](CO)NC(=O)[C@H](C)NC(=O)[C@H]([C@@H](C)O)NC(=O)[C@H](CCc2ccc(O)cc2)NC(=O)[C@H](CCCNC(=N)N)NC(=O)[C@@H]2CCCN2C(=O)[C@H]2CCCN2C(=O)[C@H]([C@@H](C)O)NC(=O)[C@H](CCCCN)NC(=O)[C@H](CCC(N)=O)NC(=O)[C@@H]2CCCN2C(=O)[C@@H]2CCCN2C1=O [Example 17] (cyclo(R[hTyr]TASIPPQKT[dP]P)) was 4256

Reported porcine pancreatic elastase (Sus scrofa) hNE/PPE selectivity for item CC[C@H](C)[C@@H]1NC(=O)[C@H](CO)NC(=O)[C@H](C)NC(=O)[C@H]([C@@H](C)O)NC(=O)[C@H](CCc2ccc(O)cc2)NC(=O)[C@H](CCCNC(=N)N)NC(=O)[C@@H]2CCCN2C(=O)[C@H]2CCCN2C(=O)[C@H](Cc2ccc(O)cc2)NC(=O)[C@H](CCCCN)NC(=O)[C@H](CCC(N)=O)NC(=O)[C@@H]2CCCN2C(=O)[C@@H]2CCCN2C1=O [Example 5] (cyclo(R[hTyr]TASIPPQKY[dP]P)) was 138

Reported porcine pancreatic elastase (Sus scrofa) hNE/PPE selectivity for item CCCCCCCC[C@@H]1NC(=O)[C@@H]2CCCN2C(=O)[C@H]2CCCN2C(=O)[C@H]([C@@H](C)O)NC(=O)[C@H](CCCCN)NC(=O)[C@H](Cc2ccc(O)cc2)NC(=O)[C@@H]2CCCN2C(=O)[C@@H]2CCCN2C(=O)[C@H]([C@@H](C)CC)NC(=O)[C@H](CO)NC(=O)[C@H](C)NC(=O)[C@H]([C@@H](C)O)NC(=O)[C@H](CCC(=O)O)NC1=O [Example 2] (cyclo([Gly(octyl)]ETASIPPYKT[dP]P)) was 98

Reported porcine pancreatic elastase (Sus scrofa) hNE/PPE selectivity for item CCCCCCCC[C@@H]1NC(=O)[C@@H]2CCCN2C(=O)[C@H]2CCCN2C(=O)[C@H]([C@@H](C)O)NC(=O)[C@H](CCCCN)NC(=O)[C@H](CCC(N)=O)NC(=O)[C@@H]2CCCN2C(=O)[C@@H]2CCCN2C(=O)[C@H]([C@@H](C)CC)NC(=O)[C@H](CO)NC(=O)[C@H](C)NC(=O)[C@H]([C@@H](C)O)NC(=O)[C@H](CCC(=O)O)NC1=O [Example 4] (cyclo([Gly(octyl)]ETASIPPQKT[dP]P)) was 348

----------
Molecular target: human neutrophil elastase (Homo sapiens, UniProt P08246)
Construct: purchased Serva Electrophoresis, Germany
Sequence (P08246 30-267): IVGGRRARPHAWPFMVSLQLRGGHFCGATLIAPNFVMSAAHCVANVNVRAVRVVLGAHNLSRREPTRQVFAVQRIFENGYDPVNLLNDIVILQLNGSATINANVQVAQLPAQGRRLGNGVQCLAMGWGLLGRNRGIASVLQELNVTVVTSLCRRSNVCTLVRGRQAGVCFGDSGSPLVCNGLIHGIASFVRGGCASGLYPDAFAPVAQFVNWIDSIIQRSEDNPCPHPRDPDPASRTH
Assay: Inhibition of human neutrophil elastase (MeOSuc-AAPV-pNA hydrolysis)
Type: biochemical
Settings: 10 nM enzyme, 0.3 mM substrate, 37° C., pH 8; read-out: Human neutrophil elastase (hNE) IC50
Non-standard residues stand in square brackets, D forms with d. Residues, ends and D or L forms follow the SMILES beside them. Gly(octyl) = CCCCCCCC[C@H](N)C(=O)O; AllylGly = C=CC[C@H](N)C(=O)O
Listed compounds paired with reported IC50
Return type: number; implicit unit nM.

Study these solved cases before continuing.
compound="CC[C@H](C)[C@@H]1NC(=O)[C@H](CO)NC(=O)[C@H](C)NC(=O)[C@H]([C@@H](C)O)NC(=O)[C@H](CCC(=O)O)NC(=O)[C@H](CCCNC(=N)N)NC(=O)[C@@H]2CCCN2C(=O)[C@H]2CCCN2C(=O)[C@H]([C@@H](C)O)NC(=O)[C@H](CCCCN)NC(=O)[C@H](Cc2ccc(O)cc2)NC(=O)[C@@H]2CCCN2C(=O)[C@@H]2CCCN2C1=O [Example 13] (cyclo(RETASIPPYKT[dP]P))" recorded_result=30.6
compound="CCCCCCCC[C@@H]1NC(=O)[C@@H]2CCCN2C(=O)[C@H]2CCCN2C(=O)[C@H]([C@@H](C)O)NC(=O)[C@H](CCCCN)NC(=O)[C@H](Cc2ccc(O)cc2)NC(=O)[C@@H]2CCCN2C(=O)[C@@H]2CCCN2C(=O)[C@H]([C@@H](C)CC)NC(=O)[C@H](CO)NC(=O)[C@H](C)NC(=O)[C@H]([C@@H](C)O)NC(=O)[C@H](CCC(=O)O)NC1=O [Example 2] (cyclo([Gly(octyl)]ETASIPPYKT[dP]P))" recorded_result=5.4
compound="C=CC[C@@H]1NC(=O)[C@H]([C@@H](C)O)NC(=O)[C@H](CCC(=O)O)NC(=O)[C@H](CCCNC(=N)N)NC(=O)[C@@H]2CCCN2C(=O)[C@H]2CCCN2C(=O)[C@H]([C@@H](C)O)NC(=O)[C@H](CCCCN)NC(=O)[C@H](CCC(N)=O)NC(=O)[C@@H]2CCCN2C(=O)[C@@H]2CCCN2C(=O)[C@H]([C@@H](C)CC)NC(=O)[C@H](CO)NC1=O [Example 7] (cyclo(RET[AllylGly]SIPPQKT[dP]P))" recorded_result=14.9

Moving on to the next compound.
The compound listed as CC[C@H](C)[C@@H]1NC(=O)[C@H](CO)NC(=O)[C@H](C)NC(=O)[C@H]([C@@H](C)O)NC(=O)[C@H](CCC(=O)O)NC(=O)[C@H](CCCNC(=N)N)NC(=O)[C@@H]2CCCN2C(=O)[C@H]2CCCN2C(=O)[C@H]([C@@H](C)O)NC(=O)[C@H](CCCCN)NC(=O)[C@H](CCC(N)=O)NC(=O)[C@@H]2CCCN2C(=O)[C@@H]2CCCN2C1=O [Example 11] (cyclo(RETASIPPQKT[dP]P)) has a reported IC50 of 12.5
